# measured_on: T1, human soluble IL6-R (human, UniProt P08887 20-358)
# T1 chain: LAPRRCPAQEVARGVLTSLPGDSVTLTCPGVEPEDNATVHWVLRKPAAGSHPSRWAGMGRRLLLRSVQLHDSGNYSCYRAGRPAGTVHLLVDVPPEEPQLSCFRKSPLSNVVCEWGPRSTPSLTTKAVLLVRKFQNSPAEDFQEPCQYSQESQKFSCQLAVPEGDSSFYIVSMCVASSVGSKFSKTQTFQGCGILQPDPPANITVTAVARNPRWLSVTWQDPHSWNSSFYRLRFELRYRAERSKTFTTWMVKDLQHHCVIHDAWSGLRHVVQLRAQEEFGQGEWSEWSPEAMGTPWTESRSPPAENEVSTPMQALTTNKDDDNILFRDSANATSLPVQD
# method_description: Alphascreen inhibition of IL6/IL6-R interaction
This section presents binders with their documented EC50 values.
assay_endpoint: EC50

IL6R03 (VHH) VHH: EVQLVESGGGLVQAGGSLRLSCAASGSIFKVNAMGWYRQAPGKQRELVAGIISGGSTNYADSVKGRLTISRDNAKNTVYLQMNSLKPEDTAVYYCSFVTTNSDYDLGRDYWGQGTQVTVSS = 105 pM
IL6R88 (VHH) VHH: EVQLVESGGGLVQPGGSLRLSCAASGFTFDDYGMSWVRQAPGKGTEWVSAISWNGNNTYYTESMKGRFTISRDNAKNTLYLQMNSLRPEDTAVYYCVKGSTAIVGVPPTYPDEYDYWGQGTLVTVSS = 72.7 pM
IL6R04 (VHH) VHH: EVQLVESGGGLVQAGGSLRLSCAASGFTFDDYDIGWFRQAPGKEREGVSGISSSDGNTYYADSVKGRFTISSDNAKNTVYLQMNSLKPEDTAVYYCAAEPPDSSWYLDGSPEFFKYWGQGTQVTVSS = 56.8 pM
